The reported numbers originate from ChEMBL document CHEMBL4316636.

tested on: MCF7; assay: Cytotoxicity in human MCF7 cells incubated for 72 hrs by MTT assay; assay type: functional, cell-based; conditions: MCF7, 72 h
Below: a set of entries, each annotated with reported IC50.

// below: answered compounds
C=C1CCCC(C)(C)C1Cc1c(OC)c(O)cc2oc3cc(O)cc(O)c3c(=O)c12 (stereo unspecified): > 10 µM
COc1c(O)cc2oc3cc(O)cc(O)c3c(=O)c2c1CC=C(C)C: > 10 µM

Please report the measured IC50 for COc1c(O)cc2oc3cc4c(c(O)c3c(=O)c2c1CC=C(C)C)C=CC(C)(C)O4 [MANGOSTANIN]
1.9 µM

Please report the measured IC50 for COc1c(O)cc2oc3c4c(cc(O)c3c(=O)c2c1C/C=C(\C)CCC=C(C)C)OC(C)(C)C=C4
> 10 µM

Please report the measured IC50 for COc1c(O)cc2oc3cc(O)c(CC=C(C)C)c(O)c3c(=O)c2c1CC=C(C)C [MANGOSTIN]
> 10 µM

---

tested on: MCF7; assay: Cytotoxicity in human MCF7 cells incubated for 72 hrs by MTT assay; format: functional, cell-based; conditions: MCF7, 72 h
Below: a set of entries, each annotated with reported IC50.

// below: answered compounds
O=c1c2ccc(O)c(O)c2oc2cc(O)cc(O)c12: > 10 µM
CC1(C)CCc2c(cc3oc4ccc(O)cc4c(=O)c3c2O)O1: > 10 µM
COc1c(O)ccc2c(=O)c3c(O)c4c(cc3oc12)OC(C)(C)C=C4: > 10 µM
COc1c(O)c(OC)c2oc3cc4c(c(O)c3c(=O)c2c1OC)C=CC(C)(C)O4: > 10 µM
COc1c(O)cc2oc3cc(O)cc(O)c3c(=O)c2c1CC1=C(C)CCCC1(C)C: > 10 µM

Please report the measured IC50 for O=c1c2cc(O)ccc2oc2cc(O)cc(O)c12
> 10 µM

Please report the measured IC50 for COc1c(O)cc2oc3c4c(cc(O)c3c(=O)c2c1CC=C(C)C)OC(C)(CCC=C(C)C)C=C4 (stereo unspecified)
> 10 µM

Please report the measured IC50 for COc1cccc2c1C(=O)c1c(O)c3c(c(O)c1C2=O)C[C@@](O)(C(=O)CO)C[C@@H]3O[C@H]1C[C@H](N)[C@H](O)[C@H](C)O1 [DOXORUBICIN]
0.49 µM

---

tested on: MCF7; assay: Cytotoxicity in human MCF7 cells incubated for 72 hrs by MTT assay; format: functional, cell-based; conditions: MCF7, 72 h
measureName: IC50

COc1c(O)cc2oc3c(C/C=C(\C)CCC=C(C)C)c(O)cc(O)c3c(=O)c2c1CCC(C)(C)O: > 10 µM
COc1c(O)cc2oc3c(CC=C(C)C)c(O)cc(O)c3c(=O)c2c1C/C=C(\C)CCC=C(C)C: 7 µM
COc1c(O)cc2oc3cc4c(c(O)c3c(=O)c2c1CC=C(C)C)CCC(C)(C)O4: > 10 µM
COc1c(O)cc2oc3cc(O)cc(O)c3c(=O)c2c1C/C=C(\C)CCCC(C)(C)O: > 10 µM

Please report the measured IC50 for COc1c(O)cc2oc3c(CC=C(C)C)c(O)cc(O)c3c(=O)c2c1CCC(C)(O)CCC=C(C)C (stereo not drawn)
8.8 µM

Please report the measured IC50 for COc1c(O)cc2oc3cc(O)c(CC=C(C)C)c(O)c3c(=O)c2c1CCC(C)(C)O
> 10 µM

Please report the measured IC50 for C=CC(C)(C)c1c(OC)c(CC=C(C)C)c(O)c2c(=O)c3ccc(O)c(O)c3oc12
> 10 µM

Please report the measured IC50 for O=c1c2cc(O)ccc2oc2cccc(O)c12
> 10 µM

Please report the measured IC50 for COc1c(O)cc2oc3cc4c(c(O)c3c(=O)c2c1CCC(C)(C)O)CCC(C)(C)O4
> 10 µM

Please report the measured IC50 for COc1c(O)cc2oc3c(C/C=C(\C)CCC=C(C)C)c(O)cc(O)c3c(=O)c2c1CC=C(C)C
4.3 µM

Please report the measured IC50 for COc1c(O)cc2oc3cc(O)cc(O)c3c(=O)c2c1CCC1(C)CCCC(C)(C)O1 (stereo not drawn)
> 10 µM

Please report the measured IC50 for COc1c(O)cc2oc3cc(O)cc(O)c3c(=O)c2c1C/C=C(\C)CCC=C(C)C
> 10 µM

Please report the measured IC50 for COc1c(O)cc2oc3c(CC=C(C)C)c(O)cc(O)c3c(=O)c2c1CC=C(C)C
> 10 µM

Please report the measured IC50 for COc1c(O)cc2oc3cc(O)cc(O)c3c(=O)c2c1CCC(C)(O)CCC=C(C)C (stereo not drawn)
> 10 µM

Please report the measured IC50 for COc1c(O)cc2oc3c(C/C=C(\C)CCC=C(C)C)c(O)c(CC=C(C)C)c(O)c3c(=O)c2c1CC=C(C)C
> 10 µM

Please report the measured IC50 for C=CC(C)(C)c1c2c(c(O)c3c(=O)c4ccc(O)c(O)c4oc13)C=CC(C)(C)O2
> 10 µM

Please report the measured IC50 for COc1c(OC)c(OC)c2c(=O)c3c(O)c4c(cc3oc2c1OC)OC(C)(C)C=C4
> 10 µM

Please report the measured IC50 for O=c1c2cc(O)c(O)cc2oc2cc(O)cc(O)c12
> 10 µM
